Reported inhibition at 100 µM values follow for various compounds
Tested on: YopE secretion by attenuated Y. pestis
protocolText: microbe, parasite or virus in culture
Format: cell-based, Yersinia pestis KIM19
conditionSummary: Yersinia pestis, 1 h, read-out: Inhibition of YopE secretion at 100 µM

Check out these entries, answers already filled in.
* CC(=O)Nc1ccc(N2C(=O)c3ccc(C(=O)OC(C)C(=O)c4c[nH]c5ccccc45)cc3C2=O)cc1 (stereo not shown) | ≥ 80%
* O=C(Cc1csc(NC(=O)c2ccccc2)n1)Nn1cnc2scc(-c3ccco3)c2c1=O | ≥ 80%
* CNC(=O)C1CN(C(=O)COC(=O)c2cc(-c3cccs3)nc3ccccc23)c2ccccc2O1 (stereo not shown) | 30%

Consider the additional compound presented here.
## Input Find inhibition at 100 µM (YopE secretion by attenuated Y. pestis) for the entry O=C(CNC(=O)c1sc2ccccc2c1Cl)Nc1ccc(-n2cnc3ccccc32)cc1
## Output ≥ 80%

Data provenance: paper PMC3097197
